Value source: paper PMC5788414

The reader will find reported Lowest concentration effective in decreasing the level of BRD3 protein values listed item by item below.
- target-or-system: BRD3 (Homo sapiens, UniProt Q15059)
- Sequence (Q15059 whole entry): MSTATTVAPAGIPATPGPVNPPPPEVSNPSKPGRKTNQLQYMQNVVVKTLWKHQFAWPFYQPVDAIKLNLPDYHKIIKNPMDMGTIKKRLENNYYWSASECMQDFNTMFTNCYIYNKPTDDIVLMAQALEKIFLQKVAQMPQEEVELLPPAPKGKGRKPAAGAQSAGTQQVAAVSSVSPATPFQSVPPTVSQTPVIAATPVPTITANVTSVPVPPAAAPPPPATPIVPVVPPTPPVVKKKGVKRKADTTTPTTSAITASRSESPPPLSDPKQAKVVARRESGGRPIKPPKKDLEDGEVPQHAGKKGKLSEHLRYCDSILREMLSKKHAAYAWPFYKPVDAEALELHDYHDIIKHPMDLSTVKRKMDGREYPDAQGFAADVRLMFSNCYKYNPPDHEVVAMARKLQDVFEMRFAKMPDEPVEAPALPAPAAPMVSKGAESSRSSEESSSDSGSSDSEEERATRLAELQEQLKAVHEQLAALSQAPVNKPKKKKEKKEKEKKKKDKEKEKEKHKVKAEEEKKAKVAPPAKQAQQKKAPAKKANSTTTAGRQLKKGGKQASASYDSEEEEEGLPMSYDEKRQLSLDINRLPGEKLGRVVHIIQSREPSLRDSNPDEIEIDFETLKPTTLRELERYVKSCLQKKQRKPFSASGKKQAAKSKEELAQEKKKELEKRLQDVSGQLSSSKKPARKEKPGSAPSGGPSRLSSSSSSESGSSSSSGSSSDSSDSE
- measurement-description: Western blotting of BRD3 protein level in RS4
- Assay type: cell-based
- experimental-conditions: RS4;11 cells, 3 h treatment, Western blot
Give the number; nM is assumed, so skip it.

CCn1nc(C2CC2)cc1Nc1nc(C(=O)NCCCCc2cccc3c2CN(C2CCC(=O)NC2=O)C3=O)nc2[nH]c3cc(-c4c(C)noc4C)c(OC)cc3c12 (stereo not shown) [Compound 24]
1
CCn1nc(C2CC2)cc1Nc1nc(C(=O)NCCCCCCc2cccc3c2CN(C2CCC(=O)NC2=O)C3=O)nc2[nH]c3cc(-c4c(C)noc4C)c(OC)cc3c12 (stereo not shown) [Compound 21]
0.1
CCn1nc(C2CC2)cc1Nc1nc(C(=O)NCCCc2cccc3c2CN(C2CCC(=O)NC2=O)C3=O)nc2[nH]c3cc(-c4c(C)noc4C)c(OC)cc3c12 (stereo not shown) [Compound 25]
10

Okay, now this molecule:
[Q] Reported Lowest concentration effective in decreasing the level of BRD3 protein for CCn1nc(C2CC2)cc1Nc1nc(C(=O)NCCCCCc2cccc3c2CN(C2CCC(=O)NC2=O)C3=O)nc2[nH]c3cc(-c4c(C)noc4C)c(OC)cc3c12 (stereo not shown) [Compound 23] : what is it?
[A] 0.1

----------
- target-or-system: UniProtKB O60885
- measurement-description: Western blotting of BRD4 protein level in RS4
- Assay type: cell-based
- experimental-conditions: RS4;11 cells, 3 h treatment, Western blot
property-measured: Lowest concentration effective in decreasing the level of BRD4 protein (nM)
Give the value in nM but do not write nM after it.

As a guide, the following entries are already answered.
CCn1nc(C2CC2)cc1Nc1nc(C(=O)NCCCc2cccc3c2CN(C2CCC(=O)NC2=O)C3=O)nc2[nH]c3cc(-c4c(C)noc4C)c(OC)cc3c12 (stereo not shown) [Compound 25]
10
CCn1nc(C2CC2)cc1Nc1nc(C(=O)NCCCCCCc2cccc3c2CN(C2CCC(=O)NC2=O)C3=O)nc2[nH]c3cc(-c4c(C)noc4C)c(OC)cc3c12 (stereo not shown) [Compound 21]
0.3
CCn1nc(C2CC2)cc1Nc1nc(C(=O)NCCCCCc2cccc3c2CN(C2CCC(=O)NC2=O)C3=O)nc2[nH]c3cc(-c4c(C)noc4C)c(OC)cc3c12 (stereo not shown) [Compound 23]
0.3

[Q] Given the entry CCn1nc(C2CC2)cc1Nc1nc(C(=O)NCCCCc2cccc3c2CN(C2CCC(=O)NC2=O)C3=O)nc2[nH]c3cc(-c4c(C)noc4C)c(OC)cc3c12 (stereo not shown) [Compound 24] , report its measured Lowest concentration effective in decreasing the level of BRD4 protein.
[A] 3

----------
Recorded Lowest concentration effective in decreasing the level of BRD2 protein for the following molecules
- target-or-system: BRD2 (Homo sapiens)
- Sequence (P25440 whole entry): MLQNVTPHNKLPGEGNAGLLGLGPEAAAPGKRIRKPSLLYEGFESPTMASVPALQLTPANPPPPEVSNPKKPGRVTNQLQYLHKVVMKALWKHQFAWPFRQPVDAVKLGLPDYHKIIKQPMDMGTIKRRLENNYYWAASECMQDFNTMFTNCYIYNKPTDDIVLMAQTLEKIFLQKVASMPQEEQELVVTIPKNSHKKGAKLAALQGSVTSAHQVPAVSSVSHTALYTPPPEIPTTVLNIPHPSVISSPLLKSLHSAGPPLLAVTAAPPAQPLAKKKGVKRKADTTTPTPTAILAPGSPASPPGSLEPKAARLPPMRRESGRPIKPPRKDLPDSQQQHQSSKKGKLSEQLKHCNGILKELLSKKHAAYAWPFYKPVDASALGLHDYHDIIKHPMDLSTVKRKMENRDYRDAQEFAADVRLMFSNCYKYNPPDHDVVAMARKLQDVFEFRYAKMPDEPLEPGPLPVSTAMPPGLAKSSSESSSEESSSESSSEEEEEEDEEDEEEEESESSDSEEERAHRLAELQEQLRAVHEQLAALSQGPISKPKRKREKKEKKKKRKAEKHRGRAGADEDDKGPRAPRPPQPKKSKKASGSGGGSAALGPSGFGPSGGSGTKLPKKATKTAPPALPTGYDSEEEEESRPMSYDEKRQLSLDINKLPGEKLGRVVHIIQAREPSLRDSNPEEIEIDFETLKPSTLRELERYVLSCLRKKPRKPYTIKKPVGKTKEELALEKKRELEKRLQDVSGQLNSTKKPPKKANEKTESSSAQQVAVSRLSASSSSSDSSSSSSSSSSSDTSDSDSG
- measurement-description: Western blotting of BRD2 protein level in RS4
- Format: cell-based
- experimental-conditions: RS4;11 cells, 3 h treatment, Western blot
The answer is to be given in nM; state only the numeric part.

CCn1nc(C2CC2)cc1Nc1nc(C(=O)NCCCCc2cccc3c2CN(C2CCC(=O)NC2=O)C3=O)nc2[nH]c3cc(-c4c(C)noc4C)c(OC)cc3c12 (stereo not shown)
3
CCn1nc(C2CC2)cc1Nc1nc(C(=O)NCCCCCCc2cccc3c2CN(C2CCC(=O)NC2=O)C3=O)nc2[nH]c3cc(-c4c(C)noc4C)c(OC)cc3c12 (stereo not shown)
0.3

Consider the record given below.
[Q] Return Lowest concentration effective in decreasing the level of BRD2 protein measured with BRD2 (Homo sapiens) given this molecule: CCn1nc(C2CC2)cc1Nc1nc(C(=O)NCCCCCc2cccc3c2CN(C2CCC(=O)NC2=O)C3=O)nc2[nH]c3cc(-c4c(C)noc4C)c(OC)cc3c12 (stereo not shown)
[A] 0.3
